B1: TMEM192 (parent)
chain: ILGKVILWILHLLLECYIQYHHSK

variants of: B1; test: protein stability index of a GFP-peptide fusion (GPS, HEK-293T) (PSI 1-6); higher = more stable; settings: c terminus: a fixed tail appended;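 note: lentivirally expressed fusions sorted by FACS into six bins by GFP to DsRed ratio, PSI derived from sequencing read proportions per bin multiplied by bin number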
Hi, to clarify the labels: criterion met covers protein stability index from 3 upward, criterion not met covers anything below 3.

- Q19P: criterion not met
- H22G: criterion not met
- G3R: criterion met
- S23D: criterion not met
- L7M: criterion not met
- L2G: criterion met
- L12R: criterion not met
- W8G: criterion not met
- K4M: criterion met
- Q19H: criterion not met
- I18V: criterion met

Origin of measurements: the supplement of paper PMC10567573
